Target: T1, human GM-CSFRα, full length on cells (human, UniProt P15509 23-400)
T1 sequence: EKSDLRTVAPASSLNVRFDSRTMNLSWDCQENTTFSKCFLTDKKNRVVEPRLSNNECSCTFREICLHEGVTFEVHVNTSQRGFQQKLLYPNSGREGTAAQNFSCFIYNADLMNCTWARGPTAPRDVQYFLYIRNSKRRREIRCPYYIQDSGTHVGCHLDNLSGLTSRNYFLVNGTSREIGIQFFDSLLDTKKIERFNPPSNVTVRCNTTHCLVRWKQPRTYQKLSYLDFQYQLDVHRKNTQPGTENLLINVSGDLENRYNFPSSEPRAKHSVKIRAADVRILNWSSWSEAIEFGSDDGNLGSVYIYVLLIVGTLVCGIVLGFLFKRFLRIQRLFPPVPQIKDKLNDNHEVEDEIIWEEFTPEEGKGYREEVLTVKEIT
Assay: cell-based or functional assay
For each entry below, report its IC50, TF-1 cell proliferation value.
One number for each entry, in mg/L.

[
  {
    "Binder": "E35-scFv LS26T (scFv, V domains shown) VH: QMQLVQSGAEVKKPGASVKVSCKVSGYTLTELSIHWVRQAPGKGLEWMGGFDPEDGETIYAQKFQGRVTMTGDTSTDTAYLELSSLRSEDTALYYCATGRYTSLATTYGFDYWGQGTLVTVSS VL: EIVMTQSPATLSLSPGERATLSCRATQSVSSYLAWYQQKPGQAPRLLIYGASSRATGIPDRFSGSGSGTDFTLTISRLEPEDFAVYYCQQYDNWPYTFGQGTKLEIK",
    "Unit Annotation": "mg/L",
    "IC50, TF-1 cell proliferation": 0.081
  },
  {
    "Binder": "E35-scFv LD92I (scFv, V domains shown) VH: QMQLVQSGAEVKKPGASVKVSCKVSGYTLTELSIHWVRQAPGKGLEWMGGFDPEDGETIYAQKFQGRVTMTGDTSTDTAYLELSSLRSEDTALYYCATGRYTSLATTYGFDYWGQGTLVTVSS VL: EIVMTQSPATLSLSPGERATLSCRASQSVSSYLAWYQQKPGQAPRLLIYGASSRATGIPDRFSGSGSGTDFTLTISRLEPEDFAVYYCQQYINWPYTFGQGTKLEIK",
    "Unit Annotation": "mg/L",
    "IC50, TF-1 cell proliferation": 0.597
  },
  {
    "Binder": "E35-scFv HT28S (scFv, V domains shown) VH: QMQLVQSGAEVKKPGASVKVSCKVSGYSLTELSIHWVRQAPGKGLEWMGGFDPEDGETIYAQKFQGRVTMTGDTSTDTAYLELSSLRSEDTALYYCATGRYTSLATTYGFDYWGQGTLVTVSS VL: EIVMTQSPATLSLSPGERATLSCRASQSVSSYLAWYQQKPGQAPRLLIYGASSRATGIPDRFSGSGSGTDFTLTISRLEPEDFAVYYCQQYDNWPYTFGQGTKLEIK",
    "Unit Annotation": "mg/L",
    "IC50, TF-1 cell proliferation": 0.11
  },
  {
    "Binder": "E35-scFv LQ27Y (scFv, V domains shown) VH: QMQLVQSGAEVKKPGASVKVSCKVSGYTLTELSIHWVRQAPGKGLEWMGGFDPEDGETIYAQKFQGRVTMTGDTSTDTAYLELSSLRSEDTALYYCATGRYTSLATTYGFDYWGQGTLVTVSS VL: EIVMTQSPATLSLSPGERATLSCRASYSVSSYLAWYQQKPGQAPRLLIYGASSRATGIPDRFSGSGSGTDFTLTISRLEPEDFAVYYCQQYDNWPYTFGQGTKLEIK",
    "Unit Annotation": "mg/L",
    "IC50, TF-1 cell proliferation": 0.065
  },
  {
    "Binder": "E35-scFv LS30W (scFv, V domains shown) VH: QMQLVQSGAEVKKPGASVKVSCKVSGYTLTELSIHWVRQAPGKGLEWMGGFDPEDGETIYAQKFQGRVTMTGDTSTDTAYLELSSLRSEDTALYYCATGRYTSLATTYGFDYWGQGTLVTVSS VL: EIVMTQSPATLSLSPGERATLSCRASQSVWSYLAWYQQKPGQAPRLLIYGASSRATGIPDRFSGSGSGTDFTLTISRLEPEDFAVYYCQQYDNWPYTFGQGTKLEIK",
    "Unit Annotation": "mg/L",
    "IC50, TF-1 cell proliferation": 0.071
  },
  {
    "Binder": "E35-scFv HT30L (scFv, V domains shown) VH: QMQLVQSGAEVKKPGASVKVSCKVSGYTLLELSIHWVRQAPGKGLEWMGGFDPEDGETIYAQKFQGRVTMTGDTSTDTAYLELSSLRSEDTALYYCATGRYTSLATTYGFDYWGQGTLVTVSS VL: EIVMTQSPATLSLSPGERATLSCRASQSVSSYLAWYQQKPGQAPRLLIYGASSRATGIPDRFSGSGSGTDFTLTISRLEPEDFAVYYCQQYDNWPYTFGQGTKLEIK",
    "Unit Annotation": "mg/L",
    "IC50, TF-1 cell proliferation": 0.181
  }
]

# per-item lookup of IC50, TF-1 cell proliferation; items listed below
1. E35-scFv LS28K (scFv, V domains shown) VH: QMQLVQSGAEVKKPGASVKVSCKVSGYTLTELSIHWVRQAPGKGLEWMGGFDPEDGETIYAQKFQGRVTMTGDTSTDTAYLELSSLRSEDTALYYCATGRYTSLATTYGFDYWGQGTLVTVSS VL: EIVMTQSPATLSLSPGERATLSCRASQKVSSYLAWYQQKPGQAPRLLIYGASSRATGIPDRFSGSGSGTDFTLTISRLEPEDFAVYYCQQYDNWPYTFGQGTKLEIK
2. E35-scFv LN93H (scFv, V domains shown) VH: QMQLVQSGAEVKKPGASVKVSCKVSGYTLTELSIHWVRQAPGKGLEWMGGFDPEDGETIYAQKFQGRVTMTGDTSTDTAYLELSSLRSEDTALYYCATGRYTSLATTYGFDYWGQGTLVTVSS VL: EIVMTQSPATLSLSPGERATLSCRASQSVSSYLAWYQQKPGQAPRLLIYGASSRATGIPDRFSGSGSGTDFTLTISRLEPEDFAVYYCQQYDHWPYTFGQGTKLEIK
3. E35-scFv LG50Q (scFv, V domains shown) VH: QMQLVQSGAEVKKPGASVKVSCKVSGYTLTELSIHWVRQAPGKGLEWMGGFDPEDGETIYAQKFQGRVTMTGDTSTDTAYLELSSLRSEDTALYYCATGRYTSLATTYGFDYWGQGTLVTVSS VL: EIVMTQSPATLSLSPGERATLSCRASQSVSSYLAWYQQKPGQAPRLLIYQASSRATGIPDRFSGSGSGTDFTLTISRLEPEDFAVYYCQQYDNWPYTFGQGTKLEIK

[0.082, 0.45, 0.93]

Hey, just so you know, these numbers are from patent US20230002496A1.
